System: PRMT1 (protein arginine N-methyltransferase 1)
Assay: small molecules binding arginine methyltransferase PRMT1 – biochemical, small-molecule microarray, 635 nm fluorescence, primary screen (AID 1088)
Conditions: higher = more signal
Kind request: treat -0.01 as inclusive, so composite z-score at -0.01 or higher is yes (1), anything lower is no (0).

compound	system-name	assigned-category
COC(=O)c1ccc(OC)c(/C=C\CC(CCc2ccccc2)OC(=O)c2ccncc2)c1 (configuration not stated)	PRMT1 (protein arginine N-methyltransferase 1)	no (0)

[in] Has CC(C)C(CO)N1C(=O)[C@@H]2[C@H]3C(=O)OCC=C[C@H]3OC23C=CCN(Cn2nnc4ccccc42)C(=O)[C@@H]13 (some centres not stated) a recorded composite z-score greater than or equal to -0.01?
[out] no (0)

[in] Has O=C1OCCC=C[C@H]2OC34C=CCN(Cn5nnc6ccccc65)C(=O)[C@H]3N(CCCCCO)C(=O)[C@@H]4C12 (some centres not stated) a recorded composite z-score greater than or equal to -0.01?
[out] no (0)

[in] Has `O=C1O[C@@H](c2ccccc2)[C@@H](c2ccccc2)N2[C@@H](c3ccc(O)cc3)[C@]3(C(=O)Nc4ccc(C#CC5(O)CCCCCC5)cc43)[C@@H](C(=O)N3CCN(c4ncccn4)CC3)[C@H]12` a recorded composite z-score greater than or equal to -0.01?
[out] yes (1)

[in] Has `COCC1=C([C@H](O)CCc2ccccc2)[C@H](CO)[C@@H]2C(=O)N(C)C(=O)[C@@H]2C1` a recorded composite z-score greater than or equal to -0.01?
[out] yes (1)

[in] Has `CCOC(=O)C[C@H]1[C@H](OC(=O)Cc2ccc3c(c2)OCO3)[C@@H](NC(=O)c2ccccc2)c2cc(OCCCO)ccc2N1C(=O)c1ccc2ccccc2n1` a recorded composite z-score greater than or equal to -0.01?
[out] yes (1)

[in] Has COc1cc(C(O)C2C=CC3C(=O)NC(=O)C3N2Nc2ccc(Cl)cc2Cl)cc(OC)c1OC (configuration not stated) a recorded composite z-score greater than or equal to -0.01?
[out] yes (1)

[in] Has `CC1=C2[C@@H](CCc3ccccc3)OB(O)C[C@@H]2[C@@H]2C(=O)C=CC(=O)[C@@H]2C1` a recorded composite z-score greater than or equal to -0.01?
[out] yes (1)

[in] Has `C=CCOc1ccc([C@@H]2CC=C(C(=O)OCC)[C@H](c3cccc(Br)c3)N2S(=O)(=O)c2ccc(C)cc2)cc1` a recorded composite z-score greater than or equal to -0.01?
[out] no (0)

[in] Has `COCCOC(=O)N1C(=O)[C@@]2(c3cc(C#CCC(C(=O)OC)C(=O)OC)ccc31)[C@H](c1ccc(OCCO)cc1)N1[C@H](c3ccccc3)[C@H](c3ccccc3)OC(=O)[C@H]1[C@@H]2C(N)=O` a recorded composite z-score greater than or equal to -0.01?
[out] yes (1)

[in] Has CC1CC/C=C\[C@H]2OC34C=CCN(c5ccc(Cl)cc5)C(=O)[C@H]3N(C(CO)C(C)C)C(=O)[C@]4(C)C2C(=O)O1 (some centres not stated) a recorded composite z-score greater than or equal to -0.01?
[out] no (0)

[in] Has `CN(C)C(=O)[C@@]1(CCC(=O)OC(C)(C)C)N=C(c2ccc(OCCCO)cc2)O[C@H]1c1ccccc1N=[N+]=[N-]` a recorded composite z-score greater than or equal to -0.01?
[out] yes (1)
